All values here come from the Human Domainome abundance scans (Beltran et al. 2025).

B1: Myocardin, residues 363 to 406; numbered along this chain, Q8IZQ8 (parent)
chain: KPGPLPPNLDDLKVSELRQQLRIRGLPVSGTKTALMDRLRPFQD

# Variants of: B1
# procedureDetails: abundance fitness (aPCA) (normalised: wild type 0, dead -1); higher = more abundant; growth selection in yeast, the domain comes from the species named
# experimentalParameters: Homo sapiens
endpoint: abundance fitness

In: For the variant P4T , report abundance fitness.
Out: 0.329

In: Return the recorded abundance fitness value; entry: A34R
Out: -0.642

In: Please report the measured abundance fitness for D44Y
Out: -0.379

In: Look up abundance fitness of P41E and report it.
Out: 0.087
